- System: Tov-21-G
- experiment notes: Primary qHTS to identify gynecologic anti-cancer compounds using libraries of approved drugs and bioactive compounds (AID 1345084); also: nearly all actives have a fitted effect of over 55% in size
- applied conditions: Gynecologic cancer cell panel viability, ATPlite luminescence, 48 h; series mostly up to 57.5 µM
Results filed as inconclusive are left out. Calls of active or inactive are those of the source. Calls follow the shape of the dose curve; as a rule, active = well fitted cell-killing curve with a large enough effect; inconclusive = small, poorly fitted or top-dose-only effect, or effect the other way; inactive = flat fitted curve, though single readings scatter.
Your reply should match one of these outcome classes. active, inactive

For orientation, consider the following solved cases.
molecule=CC(C)=C[C@@H]1[C@H](CO[C@@H]2O[C@H](CO)[C@@H](O)[C@H](O)[C@H]2O)C1(C)C discrete_label=inactive
molecule=C=C[C@H](/C=C\c1ccc(O)cc1)c1ccc(O)cc1 discrete_label=inactive
molecule=O=C(N[C@H]1CCC[C@H](CO)C1)C1CCN(c2nc3cc(Cl)c(-c4ccc(Cl)cc4)cc3o2)CC1 discrete_label=inactive
molecule=CCN(CC)CCCS(=O)(=O)N[C@H](CCc1ccccc1)c1nc(Cc2ccc(Br)cc2)no1 discrete_label=inactive
molecule=O=C(Nc1ccccc1Cl)c1cnc2ccc(C3CCNCC3)cn12 discrete_label=active

Exercise: Hi, sorry to bother you, what did the test record for C[C@@H]1C[C@H]2O[C@@]3(O[C@@H]2C(C)(C)O)C(O)[C@@]2(C)C4CCC5C(C)(C)[C@@H](O[C@H]6OC[C@H](O)[C@@H](O)[C@@H]6O)CC[C@@]56C[C@@]46CC[C@]2(C)C13 (some centres undefined) ?
Solution: inactive

Exercise: Ok, now C/C=C/C=C/C=C/C(=O)O[C@@H]1C=C(CO)C(O)(C(=O)OC)[C@@]2(C)CCCC(C)(C)C12 (some centres undefined)
Solution: inactive

Exercise: And for COc1ccc2cc(-c3cc(-c4cc(Cl)cc(Cl)c4)nn3C(C)c3ccc(C(=O)NCCC(=O)O)cc3)ccc2c1 (centres undefined) ?
Solution: inactive

Exercise: Try this molecule too: C=C(C)C1=C[C@@]2(C)C(=CC1=O)CC[C@@H](O)[C@@H]2C
Solution: inactive

====

- assay system: Cytochrome P450 2C9 (Homo sapiens) (UniProt P11712)
- Sequence (P11712 whole entry, looked up): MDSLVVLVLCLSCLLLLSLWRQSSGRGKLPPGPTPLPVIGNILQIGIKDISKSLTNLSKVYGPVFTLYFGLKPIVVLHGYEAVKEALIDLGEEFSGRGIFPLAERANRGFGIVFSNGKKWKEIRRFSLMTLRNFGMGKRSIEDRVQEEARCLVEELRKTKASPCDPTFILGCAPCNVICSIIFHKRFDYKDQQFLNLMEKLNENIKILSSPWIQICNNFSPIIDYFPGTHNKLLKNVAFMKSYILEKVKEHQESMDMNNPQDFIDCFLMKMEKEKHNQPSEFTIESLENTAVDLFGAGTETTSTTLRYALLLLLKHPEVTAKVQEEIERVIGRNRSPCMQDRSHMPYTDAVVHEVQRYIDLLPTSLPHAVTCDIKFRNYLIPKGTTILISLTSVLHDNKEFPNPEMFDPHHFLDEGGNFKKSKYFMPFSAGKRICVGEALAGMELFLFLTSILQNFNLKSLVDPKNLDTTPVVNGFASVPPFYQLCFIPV
- experiment notes: Cytochrome P450 family 2 subfamily C member 9 (CYP2C9) small molecule antagonists: luciferase biochemical (cell-free) qHTS assay (AID 1645842); also: nearly all actives have a fitted effect of over 55% in size
- applied conditions: P450-Glo CYP2C9 enzyme assay, luciferin luminescence; series mostly up to 57.4 µM
Inconclusive results are not listed. Activity calls are given as the source filed them. Calls follow the shape of the dose curve; as a rule, active = well fitted inhibition curve with a large enough effect in the repeat runs; inconclusive = weak or mixed curves; inactive = no such curve, though single readings can be large or run the other way.
Response enum: true (active), false (inactive)

Answered cases to consult:
compound="CCOC(=O)N1c2ccc(C(F)(F)F)cc2C(N(Cc2cc(C(F)(F)F)cc(C(F)(F)F)c2)C(=O)OC)CC1CC (stereo unspecified)" assay_system="Cytochrome P450 2C9 (Homo sapiens) (UniProt P11712)" discrete_label=false
compound=Cc1c(Cl)cccc1S(=O)(=O)Nc1nc(NCCc2ccccc2)nc2c1CN(Cc1ccccc1)CC2 assay_system="Cytochrome P450 2C9 (Homo sapiens) (UniProt P11712)" discrete_label=true
compound=COc1cc(N2CCOCC2)ccc1NC(=O)c1csc(-c2cccnc2)n1 assay_system="Cytochrome P450 2C9 (Homo sapiens) (UniProt P11712)" discrete_label=false

Exercise: Recorded test call requested for COc1cc2ncnc(Oc3ccc(CC(=O)Nc4cnn(C(C)C)c4)cc3)c2cc1OC
Solution: true

Exercise: Thanks! And NC(=O)c1nc(Nc2ccccc2)sc1NC(=O)C1CCCCC1 ?
Solution: true

Exercise: Repeat with C[C@@H](Nc1ncnc2[nH]c(-c3ccc(O)cc3)cc12)c1ccccc1
Solution: true

Exercise: Cool, now C=CCCN1CCC2(CC1)CN(C(=O)c1c(F)cccc1F)c1ccc(Cl)cc12
Solution: true

Exercise: Please give the result for O=C(NS(=O)(=O)c1ccc(Br)s1)c1ccc(Cl)cc1Cl too.
Solution: true

Exercise: Lookup Fc1ccc(N2CCCCC2)c(NC(=S)c2ccncc2)c1
Solution: true

Exercise: Same thing, different compound: Cc1cn2c(n1)Cc1ccc(Cl)cc1C(c1ccc(N)cc1)=N2
Solution: true

Exercise: Queued: CN(C)S(=O)(=O)c1ccc(NC(=S)N2CCC(C(O)(c3ccccc3)c3ccccc3)CC2)cc1
Solution: true

Exercise: Also COc1ccccc1N1CCN(CC(C(=O)NC(C)(C)C)c2ccccc2)CC1 (stereo unspecified) , if possible.
Solution: true

Exercise: Now consider O=C(NCCN1CCN(c2cccc3c2OCCO3)CC1)c1ccc(F)cc1 .
Solution: true

Exercise: Next compound up: Cc1ccc(O)cc1Nc1ccnc(Nc2cccc(C(N)=O)c2)n1
Solution: true

Exercise: Moving on to Cc1cc(NC(=O)c2cccc(NC(=O)/C=C/CN(C)C)c2)ccc1Nc1nccc(-c2cccnc2)n1
Solution: true

Exercise: Now consider CC(C)(C)OC(=O)c1ncn2c1C(C)(C)Nc1ccccc1-2 and answer again.
Solution: true

Exercise: Next entry: O=C(NCC1(c2nc(-c3ccccc3)cs2)CCOCC1)c1cccc(-c2noc(C(F)(F)F)n2)c1
Solution: true

Exercise: Similarly, O=C(Nc1ccc(Cl)cc1)C1CCCN(C(=O)c2cccc(-c3ccco3)c2)C1 (stereo unspecified) ?
Solution: true

====

- Test system: HEK293
- experiment notes: Cytotoxic Profiling of Annotated Libraries Using Quantitative High-Throughput Screening (AID 1296008); also: potency is read from the fitted curve at half-maximal effect; nearly all actives have a fitted effect of over 60% in size
- applied conditions: Five cell lines viability, CellTiter-Glo ATP luminescence, 48-72 h
Records with an inconclusive call do not appear. The source made the active and inactive calls. Calls follow the shape of the dose curve; as a rule, active = well fitted inhibition curve with a large enough effect; inconclusive = small, poorly fitted or top-dose-only effect; inactive = flat fitted curve, though single readings scatter.
measured attribute: Potency

compound=Cc1cc(-c2nc3cc(F)ccc3s2)ccc1NC(=O)[C@@H](N)CCCCN measured_attribute=Potency assay_result="14.6 µM (active)"
compound="COC1CC(O[C@H]2CC[C@]3(C)C4CC[C@]5(C)C(C6=CC(=O)OC6)=CCC56OC46CC[C@@H]3C2)OC(C)C1O[C@@H]1O[C@H](CO[C@@H]2O[C@H](CO)[C@@H](O)[C@H](O)[C@H]2O)[C@@H](O)[C@H](O)[C@H]1O (stereo partly drawn)" measured_attribute=Potency assay_result="1.74 µM (active)"

Now for the compound whose Potency we want.
Exercise: Which Potency is listed for CC(OC1OCCN(Cc2n[nH]c(=O)[nH]2)C1c1ccc(F)cc1)c1cc(C(F)(F)F)cc(C(F)(F)F)c1 (stereo not drawn) ?
Solution: 11.6 µM (active)

====

- assay system: Phospholipid hydroperoxide glutathione peroxidase GPX4 (Homo sapiens) (UniProt P36969)
- Sequence (P36969 whole entry, looked up): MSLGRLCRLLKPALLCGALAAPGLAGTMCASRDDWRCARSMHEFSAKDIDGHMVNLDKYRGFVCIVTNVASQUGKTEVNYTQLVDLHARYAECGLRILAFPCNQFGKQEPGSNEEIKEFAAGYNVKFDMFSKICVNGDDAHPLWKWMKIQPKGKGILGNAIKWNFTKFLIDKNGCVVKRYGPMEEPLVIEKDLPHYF
- experiment notes: Primary qHTS Assay for Inhibitors of Recombinant Selenoprotein Glutathione Peroxidase 4 (GPX4) (AID 1845192); also: % is scaled to controls: 0 for no effect and ±100 for the full control effect; nearly all actives have a fitted effect of over 65% in size
- applied conditions: recombinant GPX4, GR-coupled NADPH fluorescence, 15 min; series mostly up to 50 µM
Results filed as inconclusive are left out. Calls of active or inactive are those of the source. Calls follow the shape of the dose curve; as a rule, active = well fitted inhibition curve with a large enough effect; inconclusive = small, poorly fitted or top-dose-only effect; inactive = flat fitted curve, though single readings scatter.
Give measured activity change, negative = inhibition for each item. Keep answers brief.

molecule="CC(=O)O[C@@H]1[C@H](O[C@@H]2O[C@@H](CO)[C@H](O)[C@H]2O)[C@@H](O[C@@H]2O[C@@H](C)[C@H](O[C@@H]3OC[C@@H](O)[C@H](O)[C@H]3O)[C@@H](O)[C@H]2O)[C@H](OC(=O)[C@]23CCC(C)(C)C[C@H]2C2=CCC4[C@@]5(C)CC[C@H](O[C@@H]6O[C@H](C(=O)O)[C@@H](O)[C@H](O)[C@H]6O[C@@H]6O[C@H](CO)[C@H](O)[C@H](O)[C@H]6O)[C@@](C)(C=O)C5CC[C@@]4(C)[C@]2(C)C[C@H]3O)O[C@@H]1C (stereo partly drawn)" assay_system="Phospholipid hydroperoxide glutathione peroxidase GPX4 (Homo sapiens) (UniProt P36969)" assay_result="-0.242% [at 9.73 µM] (inactive)"
molecule="CCC/C=C/C(=O)O[C@H]1CC(C)(C)CC2[C@@]13[C@H](O)C[C@]1(C)[C@@]2(CCC2[C@@]4(C)CC[C@H](O[C@@H]5O[C@H](C(=O)O)[C@@H](O)[C@H](O[C@@H]6O[C@H](CO)[C@H](O)[C@H](O)[C@H]6O[C@@H]6O[C@@H](C)[C@H](O)[C@@H](O)[C@H]6O[C@@H]6OC[C@](O)(CO)[C@H]6O)[C@H]5O[C@@H]5O[C@H](CO)[C@H](O)[C@H](O)[C@H]5O)C(C)(C)C4CC[C@]21C)O[C@H]3O (stereo partly drawn)" assay_system="Phospholipid hydroperoxide glutathione peroxidase GPX4 (Homo sapiens) (UniProt P36969)" assay_result="-7.28% [at 9.73 µM] (inactive)"

// switching to the query molecule
Exercise: Suppose we examine the molecule C/C=C(/C)C(=O)OC1CC(C)(C)CC2C3=CCC4C5(C)CCC(O[C@@H]6O[C@H](C(=O)O)[C@@H](O)[C@H](O)[C@H]6O[C@@H]6O[C@H](CO)[C@H](O)[C@H](O[C@@H]7OC[C@H](O)[C@H](O)[C@H]7O[C@@H]7O[C@H](CO)[C@@H](O)[C@H](O)[C@H]7O)[C@H]6O)C(C)(C)C5CCC4(C)C3(C)C(O)C(O)C12CO (stereo partly drawn) ; what activity change, negative = inhibition value has been reported?
Solution: -1.81% [at 9.73 µM] (inactive)
